ASSAY_TARGET: GABA-A receptor; anion channel
TEST_PROTOCOL: In vitro displacement of [3H]diazepam from GABA-A benzodiazepine receptor
OBSERVABLE: IC50 (nM)
Value expressed in nM; do not type the unit.

Quick check: IC50 of Cc1nc2c(s1)CN=C(c1ccccc1)c1cc(Cl)ccc1-2 ?
32

Quick check: IC50 of Nc1nc2c(s1)CN=C(c1ccccc1)c1cc(Cl)ccc1-2 ?
10.5

Quick check: IC50 of Nc1nc2c(s1)CN=C(c1ccccc1Cl)c1cc(Cl)ccc1-2 ?
1.6

Quick check: IC50 of Cc1nc2c(s1)CN=C(c1ccccc1Cl)c1cc(Cl)ccc1-2 ?
4.1

Quick check: IC50 of Cc1nc2c(s1)CN=C(c1ccccc1F)c1cc(Cl)ccc1-2 ?
7.8

Quick check: IC50 of Nc1nc2c(s1)CN=C(c1ccccc1F)c1cc(Cl)ccc1-2 ?
2.8

---

TEST_PROTOCOL: Prevention of metrazole induced convulsions in the antimetrazole test.
Format: functional
CONDITION_PARAMETERS: Mus musculus
We label by threshold. Values of ED50 strictly beneath 30 mg/kg are TRUE. Values of 30 mg/kg and up are FALSE.

Lab log: compare recorded ED50 with 30 mg/kg; is it strictly lower for Nc1nc2c(s1)CN=C(c1ccccc1Cl)c1cc(Cl)ccc1-2 ?
TRUE

Lab log: compare recorded ED50 with 30 mg/kg; is it strictly lower for Cc1nc2c(s1)CN=C(c1ccccc1)c1cc(Cl)ccc1-2 ?
FALSE

Lab log: compare recorded ED50 with 30 mg/kg; is it strictly lower for Cc1nc2c(s1)CN=C(c1ccccc1Cl)c1cc(Cl)ccc1-2 ?
FALSE

Lab log: compare recorded ED50 with 30 mg/kg; is it strictly lower for CN1C(=O)CN=C(c2ccccc2)c2cc(Cl)ccc21 ?
TRUE

Lab log: compare recorded ED50 with 30 mg/kg; is it strictly lower for Nc1nc2c(s1)CN=C(c1ccccc1)c1cc(Cl)ccc1-2 ?
TRUE

Lab log: compare recorded ED50 with 30 mg/kg; is it strictly lower for Nc1nc2c(s1)CN=C(c1ccccc1F)c1cc(Cl)ccc1-2 ?
TRUE
